# Test system: c-Abl (mouse)
# test.details: phosphorylation enrichment, bacterial display (enrichment ratio); higher = better substrate or ligand; peptides without Tyr show the background;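 also: 11-residue human phosphosite peptides and single-mutation variants displayed on the E. coli surface, counted by deep sequencing, each peptide's frequency after selection divided by its frequency in the unselected input library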;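 also: frequency after pTyr selection over input frequency; kinase dosed for 20-30% of maximal phosphorylation in three min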
Record 1 whenever phosphorylation enrichment is at 0.7 or higher; record 0 when lower.

[
  {
    "sequence.string": "SFPSTYRYERG [INPPL1_Y661_P659S]",
    "system.under.test": "c-Abl (mouse)",
    "category.label": 0
  },
  {
    "sequence.string": "LFSNAYLNDLA [ALDH1A1_Y119_YF]",
    "system.under.test": "c-Abl (mouse)",
    "category.label": 1
  },
  {
    "sequence.string": "SELVCYDARVH [MET_Y971_R970C]",
    "system.under.test": "c-Abl (mouse)",
    "category.label": 1
  },
  {
    "sequence.string": "KYLENYYDLKK [MMP3_Y41]",
    "system.under.test": "c-Abl (mouse)",
    "category.label": 1
  }
]

phosphorylation enrichment >= 0.7 for TEDELYQLFLQ [RASGRP2_Y378_S381F] ?
1

* * *

# system.under.test: Hck (UniProt P08631)
# Sequence (P08631 whole entry, looked up): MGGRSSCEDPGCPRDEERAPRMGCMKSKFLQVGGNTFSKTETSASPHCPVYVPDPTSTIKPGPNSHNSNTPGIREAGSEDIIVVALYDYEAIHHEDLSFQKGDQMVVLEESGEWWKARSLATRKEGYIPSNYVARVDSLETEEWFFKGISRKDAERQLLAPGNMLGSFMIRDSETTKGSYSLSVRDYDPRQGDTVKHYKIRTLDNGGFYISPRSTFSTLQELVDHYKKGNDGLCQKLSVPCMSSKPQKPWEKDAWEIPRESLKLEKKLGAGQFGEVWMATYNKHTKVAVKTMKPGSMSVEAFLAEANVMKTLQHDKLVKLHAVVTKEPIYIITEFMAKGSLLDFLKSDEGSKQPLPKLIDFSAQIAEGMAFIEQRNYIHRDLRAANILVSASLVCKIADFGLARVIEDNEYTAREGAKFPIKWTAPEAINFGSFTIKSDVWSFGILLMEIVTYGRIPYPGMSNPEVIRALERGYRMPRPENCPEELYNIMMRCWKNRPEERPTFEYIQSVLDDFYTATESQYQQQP
# test.details: phosphorylation enrichment, bacterial display (enrichment ratio); higher = better substrate or ligand; peptides without Tyr show the background
Mark Condition met for reported phosphorylation enrichment of 0.6 or greater; mark Condition not met for anything smaller.

[
  {
    "sequence.string": "GQECKYPPTQD [METAP2_Y137_E136K]",
    "category.label": "Condition not met"
  },
  {
    "sequence.string": "FADIAYNYHHG [PAH_Y166_R169H]",
    "category.label": "Condition not met"
  },
  {
    "sequence.string": "QTLTDYDTRFF [CSNK2A3_Y131_I133T_YF]",
    "category.label": "Condition met"
  },
  {
    "sequence.string": "FTRNYYVWAVL [CYBA_Y88_R90W]",
    "category.label": "Condition met"
  },
  {
    "sequence.string": "FEGAIYRKDVG [GART_Y417]",
    "category.label": "Condition not met"
  },
  {
    "sequence.string": "KVGPGYLGSRG [RET_Y826_G830R]",
    "category.label": "Condition not met"
  }
]

Evaluate NYDLDYDSVQP [MYC_Y16] : phosphorylation enrichment at minimum 0.6?
Condition met

Say whether RLRKFYLGKFL [KLB_Y906_YF] shows phosphorylation enrichment of 0.6 or more.
Condition met

API: above_or_equal(metric=phosphorylation enrichment, cutoff=0.6) for item HAVVDYMRRQK [ATM_Y1915_L1910H]
Condition met

Tell me whether phosphorylation enrichment is at least 0.6 here: FAKTQYPDIYA [CRX_Y63_V66I]
Condition met

Tell me whether phosphorylation enrichment is at least 0.6 here: SVTCTYSPAHN [TP53_Y126_L130H]
Condition not met

hey, is phosphorylation enrichment for this one >= 0.6? AQRKLYRNVML [ZNF569_Y33]
Condition not met

Determine whether measured phosphorylation enrichment meets or exceeds 0.6 for SSFSGYIMMPN [LEF1_Y114_YF]
Condition not met

API: above_or_equal(metric=phosphorylation enrichment, cutoff=0.6) for item VSLEAYCKHKF [RXRA_Y403_A398V_YF]
Condition not met

Reported phosphorylation enrichment reaches at least 0.6 for IKGIRYLHHQG [GUCY2D_Y656_R660Q] ?
Condition not met

I'd appreciate it if you could say whether HNLDYYKQTTN [FGFR3_Y648_K650Q] has phosphorylation enrichment at least equal to 0.6.
Condition met

For this sequence, is measured phosphorylation enrichment 0.6 or higher? ELELLYPDRNS [NYX_Y284_L285P]
Condition not met

Identify whether the reported phosphorylation enrichment of the following sequence is 0.6 or greater: GGTPLYRDRQG [AGXT_Y194_M195R]
Condition not met

phosphorylation enrichment >= 0.6 for SMAKFYASEIA [ACADSB_Y373_YF] ?
Condition not met

Decide: is the reported value of phosphorylation enrichment for PIDLFYLMDLS [ITGB2_Y131_YF] equal to or greater than 0.6?
Condition met

Please indicate if the recorded phosphorylation enrichment for LTELGYSFVTT [ACTA1_Y200_R198L] meets or exceeds 0.6.
Condition met

Quick check: does IENKLCGMSDP [RET_Y1062_Y1062C] have phosphorylation enrichment greater than or equal to 0.6?
Condition not met

Decide: is the reported value of phosphorylation enrichment for NESVDYRATFP [MET_Y1003] equal to or greater than 0.6?
Condition not met

Threshold query (phosphorylation enrichment >= 0.6) on CDFKKYGKGLR [ZNF445_Y433_Y428C_YF]
Condition not met

* * *

# system.under.test: MERTK (UniProt Q12866)
# Sequence (Q12866 whole entry, looked up): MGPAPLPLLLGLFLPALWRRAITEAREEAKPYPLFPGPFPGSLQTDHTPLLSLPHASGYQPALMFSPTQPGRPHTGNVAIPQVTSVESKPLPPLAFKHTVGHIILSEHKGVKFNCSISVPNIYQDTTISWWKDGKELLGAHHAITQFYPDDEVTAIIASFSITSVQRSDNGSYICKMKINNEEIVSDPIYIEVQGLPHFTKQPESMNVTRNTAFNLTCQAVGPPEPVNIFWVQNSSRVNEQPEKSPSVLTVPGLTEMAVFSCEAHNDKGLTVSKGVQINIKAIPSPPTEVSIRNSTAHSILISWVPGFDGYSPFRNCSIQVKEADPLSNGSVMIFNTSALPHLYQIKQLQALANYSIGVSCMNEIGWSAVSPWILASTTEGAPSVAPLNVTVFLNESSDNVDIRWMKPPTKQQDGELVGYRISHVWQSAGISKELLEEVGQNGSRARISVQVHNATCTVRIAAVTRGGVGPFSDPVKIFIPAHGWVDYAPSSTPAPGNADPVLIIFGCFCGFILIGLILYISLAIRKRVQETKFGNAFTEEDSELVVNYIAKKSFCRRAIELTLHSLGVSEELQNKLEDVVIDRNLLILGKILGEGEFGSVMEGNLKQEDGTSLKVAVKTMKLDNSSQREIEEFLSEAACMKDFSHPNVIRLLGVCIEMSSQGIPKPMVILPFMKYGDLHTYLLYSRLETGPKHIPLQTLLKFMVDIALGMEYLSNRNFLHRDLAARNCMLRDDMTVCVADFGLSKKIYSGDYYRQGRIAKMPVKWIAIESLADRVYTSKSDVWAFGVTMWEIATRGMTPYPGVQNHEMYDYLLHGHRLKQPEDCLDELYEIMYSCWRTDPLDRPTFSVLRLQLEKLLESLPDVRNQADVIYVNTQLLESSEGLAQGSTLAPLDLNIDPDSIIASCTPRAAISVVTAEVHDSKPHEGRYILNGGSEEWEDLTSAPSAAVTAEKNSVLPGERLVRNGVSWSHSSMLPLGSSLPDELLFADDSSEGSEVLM
# test.details: phosphorylation enrichment, bacterial display (enrichment ratio); higher = better substrate or ligand; peptides without Tyr show the background
Each item that follows carries a reported phosphorylation enrichment.
Keep the answer to the number alone.

Here is how some sequences turned out for phosphorylation enrichment.
[
  {
    "sequence.string": "PVDVAYRRGFF [PLEC_Y2967_YF]",
    "phosphorylation enrichment": 0.586
  },
  {
    "sequence.string": "EFITRYIDSLK [PSMA7_Y110_A112D_YF]",
    "phosphorylation enrichment": 0.479
  },
  {
    "sequence.string": "HFMKLYEEKTG [PARP1_Y618]",
    "phosphorylation enrichment": 0.438
  },
  {
    "sequence.string": "GGPAEYLRRAS [PKLR_Y38_G37E]",
    "phosphorylation enrichment": 0.361
  },
  {
    "sequence.string": "YLGRDYLETLM [DUS3L_Y610]",
    "phosphorylation enrichment": 0.524
  }
]

Any idea what phosphorylation enrichment was measured for KAIMIYVSSFY [ACTN4_Y260_T259I] ?
0.347

Report phosphorylation enrichment for PADCRYYTFPQ [GAMT_Y222_A224T] please.
11

// query phosphorylation enrichment value for entry CLAKMYYSAVE [CP_Y539_D544E]
2.82

Given the sequence FNDSAYNQQLI [ZPLD1_Y198_T197A_YF] , what is its reported phosphorylation enrichment?
0.297

Can you share its phosphorylation enrichment? I mean this sequence: PIPIKYKAMKK [MYD88_Y257_L252P]
0.382

# phosphorylation enrichment lookup, item LIDGYYRLTED [JAK2_Y373_A377E]
0.574

GET /values?readout=phosphorylation enrichment&item= RSRSSYTHGLN [MYCT1_Y116]
0.883

For the sequence IFRASYFRKGG [ALK_Y1282_YF] , what phosphorylation enrichment is on record?
0.706

I am curious: what phosphorylation enrichment value has been reported for KAIDMYLMGCF [GABRB2_Y308] ?
0.425

I am curious: what phosphorylation enrichment value has been reported for VRTGIYHGGKP [PIK3CA_Y361_E365K] ?
0.294

Which phosphorylation enrichment is reported for this sequence? FTRNYYVWAVL [CYBA_Y88_R90W]
3.54

* * *

# Test system: c-Src
# test.details: phosphorylation enrichment, bacterial display (enrichment ratio); higher = better substrate or ligand; peptides without Tyr show the background
This section presents sequences with their documented phosphorylation enrichment values.
Just the number, please, no unit attached.

Consider the following illustrative entries.
[
  {
    "sequence.string": "LLQKTYNYNVL [SLC4A1_Y553_P548L]",
    "system.under.test": "c-Src",
    "phosphorylation enrichment": 0.851
  },
  {
    "sequence.string": "PLDGEYFTHQI [TP53_Y327_L330H]",
    "system.under.test": "c-Src",
    "phosphorylation enrichment": 1.61
  },
  {
    "sequence.string": "FADIAYIYRHG [PAH_Y166_N167I]",
    "system.under.test": "c-Src",
    "phosphorylation enrichment": 0.638
  },
  {
    "sequence.string": "PESIMYRKFTT [NTRK3_Y744]",
    "system.under.test": "c-Src",
    "phosphorylation enrichment": 0.488
  },
  {
    "sequence.string": "HVKHNYECLVY [XRCC5_Y416_I412V]",
    "system.under.test": "c-Src",
    "phosphorylation enrichment": 2.04
  },
  {
    "sequence.string": "SLGKGYYDGGC [MC4R_Y35_S36Y]",
    "system.under.test": "c-Src",
    "phosphorylation enrichment": 0.543
  }
]

Quick check: phosphorylation enrichment on c-Src, item SEKISYVYMKR [SSX7_Y48_L43S] ?
0.444

API: value(readout= phosphorylation enrichment, system= c-Src, query= PQIVKYRPDCI [LDHB_Y128_S129R] )
0.663

Lab request: please report phosphorylation enrichment under test system c-Src for YVSSFYHAFSG [ACTN4_Y265]
3.68

Find phosphorylation enrichment (c-Src) for the entry PEVRRHVLPLN [RPE65_Y368_Y368H]
0.661

Recall the recorded phosphorylation enrichment for VEDDMYRKTCT [XPA_Y257_L252V] with c-Src and state it.
0.544

Give the reported phosphorylation enrichment for PVKTPYSLKRW [BMPR2_Y979_R974P] (system: c-Src).
0.987

Quick check: phosphorylation enrichment on c-Src, item TRLAQYDSNSK [BMX_Y216_S212R] ?
0.643

Enter reported phosphorylation enrichment observed with c-Src for FGLDHYQCDCT [PTGS1_Y54_R53H]
0.464

Requested read-out phosphorylation enrichment, target or system c-Src, entry VGSIKYLKREW [KCNMA1_Y885_E884K]
0.38

Param readout= phosphorylation enrichment; system= c-Src; entry= DNEALYDICFR [TUBB2B_Y208] ; returns value.
5.86

For the record IPGVEYLVSII [TNC_Y1775] , what value of phosphorylation enrichment is listed for c-Src?
0.5

Checklist item: phosphorylation enrichment tested on c-Src, entry YCRHNYGVGES [HLA-DRB1_Y112_V115G] , value?
0.552

Recorded phosphorylation enrichment for QGIPWYHSQSP [FOXF1_Y331_R330W] with c-Src, please?
0.601

GET /values?readout=phosphorylation enrichment&system=c-Src&item= LRSELYSLIAR [PHIP_Y16_F17S]
2.26

Notebook entry, c-Src assay: phosphorylation enrichment of LPEENYQVLCF [ARHGAP1_Y365_R369C] = ?
5.73

# query: phosphorylation enrichment | item RGFRVCFTPDS [PTPRF_Y450_Y450C_YF] | system: c-Src
0.549

Please tell me: phosphorylation enrichment of LERYIYNREEY [HLA-DPB1_Y59_F64Y] , system c-Src?
3.15

Give c-Src phosphorylation enrichment for HSDYQYGQRSQ [PKP2_Y168_S169G]
0.402

Each recorded value in this set is attributed to the supplement of paper PMC10065799.
